target: UniProt P10635; assay: CYP2D6 time-dependent inhibition in primary human hepatocytes; conditions: human, primary human hepatocytes, probe dextromethorphan (40 μM), O-demethylation, CYP2D6 IC50, human hepatocytes, pre-incubation 0 min
Sequence (P10635 whole entry): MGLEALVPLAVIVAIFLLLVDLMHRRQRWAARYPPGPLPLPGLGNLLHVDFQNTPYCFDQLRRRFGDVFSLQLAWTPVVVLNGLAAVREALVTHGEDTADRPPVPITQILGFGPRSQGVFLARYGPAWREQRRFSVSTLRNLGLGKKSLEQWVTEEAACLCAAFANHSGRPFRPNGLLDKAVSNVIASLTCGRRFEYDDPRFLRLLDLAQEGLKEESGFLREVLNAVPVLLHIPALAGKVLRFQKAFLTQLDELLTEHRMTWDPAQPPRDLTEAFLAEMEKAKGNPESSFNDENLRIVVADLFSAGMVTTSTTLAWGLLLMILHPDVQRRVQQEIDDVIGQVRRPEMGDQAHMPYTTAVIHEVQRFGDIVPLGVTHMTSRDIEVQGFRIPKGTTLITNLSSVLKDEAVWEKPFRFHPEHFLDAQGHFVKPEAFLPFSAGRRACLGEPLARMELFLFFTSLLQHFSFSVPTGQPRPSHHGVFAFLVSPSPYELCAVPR
property-label: IC50 at 5 min (µM)
Provide the reading as a plain figure in µM.

Data request: // query IC50 at 5 min value for entry COc1cc2ncnc(Nc3cccc(Cl)c3F)c2cc1OCCON1CCN(C)CC1
Data returned: 4.57

---

experiment: Brain tissue binding by equilibrium dialysis; format: in vitro ADME; conditions: rat, brain homogenate; read-out: fu,brain% / %Unboundbrain
property-label: fraction unbound at 6 h, 5 µM

Data request: // query fraction unbound at 6 h, 5 µM value for entry COc1cc2ncnc(Nc3cccc(Cl)c3F)c2cc1OCCON1CCN(C)CC1 [Compound 9]
Data returned: 0.045
